Measured pIC50 by item
- System: MX-1 (human breast carcinoma) cells
- Test Method Notes: In vitro growth inhibition (cytotoxicity, CellTiter Blue Cell Viability Assay)
- Type: cell-based
- Assay Context: cells exposed 72 hr
Keep it numeric: pIC50 is minus log10 of the concentration in mol/L.

- Molecule: "CCC(=O)O[C@@H](C(=O)O[C@H]1C[C@@]2(O)[C@@H](OC(=O)c3ccccc3)C3[C@](C)(C(=O)[C@H](O)C(=C1C)C2(C)C)[C@@H](O)C[C@H]1OC[C@@]31OC(C)=O)[C@@H](NC(=O)OC(C)(C)C)c1ccccc1 (stereo partly drawn)"
  Target Desc: "MX-1 (human breast carcinoma) cells"
  Number: 3.68
- Molecule: "CCCCCCCCCC(=O)O[C@@H](C(=O)O[C@H]1C[C@@]2(O)[C@@H](OC(=O)c3ccccc3)C3[C@](C)(C(=O)[C@H](O)C(=C1C)C2(C)C)[C@@H](O)C[C@H]1OC[C@@]31OC(C)=O)[C@@H](NC(=O)OC(C)(C)C)c1ccccc1 (stereo partly drawn)"
  Target Desc: "MX-1 (human breast carcinoma) cells"
  Number: 5.06

// next entry
Query: Using known records, supply pIC50 for CCCCCC(=O)O[C@@H](C(=O)O[C@H]1C[C@@]2(O)[C@@H](OC(=O)c3ccccc3)C3[C@](C)(C(=O)[C@H](O)C(=C1C)C2(C)C)[C@@H](O)C[C@H]1OC[C@@]31OC(C)=O)[C@@H](NC(=O)OC(C)(C)C)c1ccccc1 (stereo partly drawn)
Reply: 3.99
